# reported pEC50; entries follow
target: UniProt P28223; assay: Agonist activity at human 5-HT2A receptor assessed as activation of calcium mobilization incubated for 2 mins by Calcium-6 dye based FLIPR assay
Sequence (P28223 whole entry): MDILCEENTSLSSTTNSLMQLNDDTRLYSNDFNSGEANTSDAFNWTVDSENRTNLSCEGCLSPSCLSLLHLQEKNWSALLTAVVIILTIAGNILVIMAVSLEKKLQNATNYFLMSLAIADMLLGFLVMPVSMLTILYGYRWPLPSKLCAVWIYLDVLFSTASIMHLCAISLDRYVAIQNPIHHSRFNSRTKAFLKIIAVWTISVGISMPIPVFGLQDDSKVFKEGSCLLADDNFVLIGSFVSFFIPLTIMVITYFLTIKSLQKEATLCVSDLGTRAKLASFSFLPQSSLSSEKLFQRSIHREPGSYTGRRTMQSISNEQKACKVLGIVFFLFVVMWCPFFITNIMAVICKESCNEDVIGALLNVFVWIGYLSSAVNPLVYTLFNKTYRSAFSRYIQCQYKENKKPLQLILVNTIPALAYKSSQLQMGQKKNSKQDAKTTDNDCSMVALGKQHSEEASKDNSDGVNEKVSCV
pEC50: −log10 of the molar value.

The following compounds have reported results that may help.
| Compound | pEC50 |
| --- | --- |
| [2H]C1([2H])CC(c2c[nH]c3cccc(O)c23)C([2H])([2H])N1 (stereo not given) | < 5.00 |
| [2H]C1([2H])CC(c2c[nH]c3cccc(O)c23)C([2H])([2H])N1C (stereo not given) | > 6.00 |

// pEC50 lookup, compound = [2H]C([2H])N1CCC(c2c[nH]c3cccc(O)c23)C1 (stereo not given) , result: > 6.00

Looking up [2H]C1([2H])CC(c2c[nH]c3cccc(OCc4ccccc4)c23)C([2H])([2H])N1C (stereo not given) , I see its pEC50 listed as < 5.00

Lookup result for [2H]C1([2H])CC(c2c[nH]c3cccc(OCc4ccccc4)c23)C([2H])([2H])N1 (stereo not given) ; measured pEC50: > 6.00

Source: ChEMBL document CHEMBL5143755
